Biological target: recombinant human baculovirus-expressed GST-tagged FASN (Homo sapiens, UniProt P49327)
Construct: GST
Sequence (P49327 whole entry): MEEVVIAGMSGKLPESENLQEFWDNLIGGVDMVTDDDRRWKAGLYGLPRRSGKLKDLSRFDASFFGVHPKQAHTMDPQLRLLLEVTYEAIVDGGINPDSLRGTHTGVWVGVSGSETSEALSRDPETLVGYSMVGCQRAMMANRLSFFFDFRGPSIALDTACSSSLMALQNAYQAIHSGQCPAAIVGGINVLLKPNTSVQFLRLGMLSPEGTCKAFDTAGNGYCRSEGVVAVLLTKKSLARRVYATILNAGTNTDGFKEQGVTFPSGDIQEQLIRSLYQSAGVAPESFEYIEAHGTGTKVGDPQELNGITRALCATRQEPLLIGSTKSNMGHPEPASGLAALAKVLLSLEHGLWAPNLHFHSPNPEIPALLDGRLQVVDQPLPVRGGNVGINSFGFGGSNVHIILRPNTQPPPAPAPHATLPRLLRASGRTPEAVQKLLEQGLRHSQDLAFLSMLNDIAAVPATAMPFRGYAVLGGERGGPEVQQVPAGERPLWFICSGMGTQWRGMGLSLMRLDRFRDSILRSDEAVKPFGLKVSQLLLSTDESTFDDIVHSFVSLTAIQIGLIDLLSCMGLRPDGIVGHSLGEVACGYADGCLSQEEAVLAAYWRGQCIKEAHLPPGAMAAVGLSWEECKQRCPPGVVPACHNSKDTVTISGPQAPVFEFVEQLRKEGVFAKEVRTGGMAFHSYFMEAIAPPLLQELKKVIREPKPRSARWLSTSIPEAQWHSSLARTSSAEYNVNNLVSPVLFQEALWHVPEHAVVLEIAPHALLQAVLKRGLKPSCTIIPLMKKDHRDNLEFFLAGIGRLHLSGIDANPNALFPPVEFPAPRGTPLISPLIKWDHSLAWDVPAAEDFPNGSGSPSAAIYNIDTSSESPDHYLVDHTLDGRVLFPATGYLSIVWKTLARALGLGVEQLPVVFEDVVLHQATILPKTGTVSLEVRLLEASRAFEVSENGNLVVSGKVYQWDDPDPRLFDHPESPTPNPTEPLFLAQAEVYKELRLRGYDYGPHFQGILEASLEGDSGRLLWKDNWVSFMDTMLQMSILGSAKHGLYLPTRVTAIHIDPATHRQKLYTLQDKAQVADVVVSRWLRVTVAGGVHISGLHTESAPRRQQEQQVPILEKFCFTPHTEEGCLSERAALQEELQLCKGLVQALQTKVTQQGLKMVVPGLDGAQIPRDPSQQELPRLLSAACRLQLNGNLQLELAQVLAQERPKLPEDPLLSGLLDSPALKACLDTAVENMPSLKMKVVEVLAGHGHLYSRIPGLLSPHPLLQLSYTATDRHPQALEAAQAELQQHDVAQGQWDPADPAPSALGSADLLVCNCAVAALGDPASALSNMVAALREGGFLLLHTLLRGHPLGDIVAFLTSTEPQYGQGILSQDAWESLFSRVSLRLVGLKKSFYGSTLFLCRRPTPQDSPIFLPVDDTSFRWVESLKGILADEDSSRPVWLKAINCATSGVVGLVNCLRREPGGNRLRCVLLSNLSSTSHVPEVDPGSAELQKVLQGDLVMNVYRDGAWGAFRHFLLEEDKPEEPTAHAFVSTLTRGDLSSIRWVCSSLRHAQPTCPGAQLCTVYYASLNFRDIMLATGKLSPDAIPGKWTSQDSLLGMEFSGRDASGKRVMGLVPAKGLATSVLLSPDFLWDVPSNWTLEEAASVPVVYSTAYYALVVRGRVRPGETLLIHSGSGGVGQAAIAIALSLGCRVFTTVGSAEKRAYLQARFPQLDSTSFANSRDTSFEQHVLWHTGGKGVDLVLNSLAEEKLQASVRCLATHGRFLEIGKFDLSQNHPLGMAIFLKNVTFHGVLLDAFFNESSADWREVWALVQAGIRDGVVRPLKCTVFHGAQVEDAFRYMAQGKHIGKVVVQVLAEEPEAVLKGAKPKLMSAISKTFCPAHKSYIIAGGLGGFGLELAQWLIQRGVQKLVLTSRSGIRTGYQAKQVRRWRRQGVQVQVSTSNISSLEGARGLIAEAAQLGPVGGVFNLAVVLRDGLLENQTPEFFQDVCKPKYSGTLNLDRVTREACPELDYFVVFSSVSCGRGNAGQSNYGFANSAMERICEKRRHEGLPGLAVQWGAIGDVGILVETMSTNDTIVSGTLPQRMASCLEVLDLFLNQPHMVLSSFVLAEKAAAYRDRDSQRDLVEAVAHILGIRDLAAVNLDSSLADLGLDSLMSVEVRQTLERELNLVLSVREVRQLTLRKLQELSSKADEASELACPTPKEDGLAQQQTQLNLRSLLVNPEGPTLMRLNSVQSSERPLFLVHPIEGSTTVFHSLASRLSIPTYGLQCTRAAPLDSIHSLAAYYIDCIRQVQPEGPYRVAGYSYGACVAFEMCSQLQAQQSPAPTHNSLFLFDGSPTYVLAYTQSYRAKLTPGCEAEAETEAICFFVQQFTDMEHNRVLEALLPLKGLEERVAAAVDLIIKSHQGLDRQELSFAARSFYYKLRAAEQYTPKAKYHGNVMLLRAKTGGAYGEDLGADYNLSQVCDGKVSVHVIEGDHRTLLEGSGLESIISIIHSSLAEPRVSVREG
Assay: FASN enzyme activity assay, fluorescence-based detection of CoA with CPM
Assay type: biochemical
Settings: 5 nM FASN, 150 μM NADPH, 10 μM acetyl-CoA, 25 μM malonyl-CoA, 90 minutes incubation; read-out: IC50 data for Compounds of Formulae I-V/V(a): Activity
Structures can show the parent of a compound that is named as a salt.
measure: IC50

As a guide, the following entries are already answered.
                                   compound  measure  observed_value
0  NC(=O)c1c(-c2ccc(OC3CCN(C(=O)[C@H]4CCCO4)CC3)cc2)ccc2cccnc12     IC50   100 to 999 nM
1  CC(C)C(=O)N1CCC(Oc2ccc(-c3ccc4cccnc4c3)cc2)CC1     IC50   100 to 999 nM
2  CNC(=O)N1CCC(Oc2ccc(-c3ccc4cccnc4c3C)cc2)CC1     IC50      1 to 99 nM
3  Cc1c(-c2ccc(OC3CCN(C(=O)[C@H]4CCCO4)CC3)cc2)ccc2cnccc12 [Example 468, HCl]     IC50      1 to 99 nM
4  O=C(C1CC1)N1CCC(Oc2ccc(-c3cnc4cc(F)ccc4c3)cc2)CC1     IC50      1 to 99 nM

Input line: Supply IC50 measured with recombinant human baculovirus-expressed GST-tagged FASN (Homo sapiens, UniProt P49327) for CCC(=O)N1CCC(Oc2ccc(-c3cnc4cccc(C)c4c3)cc2)CC1 [Example 460, HCl] .
Output line: 100 to 999 nM

Input line: Supply IC50 measured with recombinant human baculovirus-expressed GST-tagged FASN (Homo sapiens, UniProt P49327) for `CCC(=O)N1CCC(Oc2ccc(-c3ccc4cccnc4c3)cc2)CC1` .
Output line: 1 to 99 nM

Input line: Supply IC50 measured with recombinant human baculovirus-expressed GST-tagged FASN (Homo sapiens, UniProt P49327) for O=C(C1CCC1)N1CCC(Oc2ccc(-c3cncc(-c4ccccc4)c3)cc2)CC1 [Example 385, TFA salt] .
Output line: 1000 to 10000 nM

Where these numbers come from: patent US9902696B2
